# credit: patent US20200338203A1

Molecular target: T1, Human EphA2 (Ecto) (Human, UniProt P29317 24-537)
T1 construct: extracellular domain
T1 sequence (P29317 24-537): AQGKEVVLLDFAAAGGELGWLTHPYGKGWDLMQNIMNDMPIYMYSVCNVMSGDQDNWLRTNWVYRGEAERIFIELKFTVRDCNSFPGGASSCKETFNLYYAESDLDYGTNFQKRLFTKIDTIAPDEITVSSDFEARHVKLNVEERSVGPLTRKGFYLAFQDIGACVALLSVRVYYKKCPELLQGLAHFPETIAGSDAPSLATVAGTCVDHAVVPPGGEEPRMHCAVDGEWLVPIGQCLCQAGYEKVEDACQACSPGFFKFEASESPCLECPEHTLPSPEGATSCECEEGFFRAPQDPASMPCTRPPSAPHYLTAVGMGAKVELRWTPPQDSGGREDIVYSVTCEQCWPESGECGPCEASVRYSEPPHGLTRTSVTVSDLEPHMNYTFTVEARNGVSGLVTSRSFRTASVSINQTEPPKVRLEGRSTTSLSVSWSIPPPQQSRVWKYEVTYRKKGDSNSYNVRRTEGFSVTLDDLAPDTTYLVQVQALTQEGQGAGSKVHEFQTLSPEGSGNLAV
Experiment: FP competition; competitor Compound 18
Description: Peptides without a fluorescent tag were tested in competition with a peptide with a fluorescent tag and a known Kd (Table 2). Peptides were diluted to an appropriate concentration in assay buffer as described in the direct binding assay with a maximum of 5% DMSO, then serially diluted 1 in 2. […] Measurements were conducted as for the direct binding assay, however the gain was determined prior to the first measurement.
Numbered stars: 1 amine (or outer) side, 2 acyl side, 3 side chain; on linkers, the order of the positions; unused ones are H or OH. Bridge positions count the residues as written; N and C are the ends. Square brackets hold non-standard residues; d marks the D form. Ends that are not written are not given here. 1Nal = N[C@@H](Cc1cccc2ccccc12)C(=O)O; TBMB = c1c(C[*:1])cc(C[*:3])cc1C[*:2]; Aib = CC(C)(N)C(=O)O; Sar = CNCC(=O)O
Recorded Ki, one value per entry.
Respond with the bare value in nM.

Some binders with known Ki results, for comparison:
Ac-[Sar][Sar]H[dD]VPCPWG[Aib]F[1Nal]CPVNR[Aib]GC (linker 7-14-21 via TBMB) [Compound 268] ... 1.24
AHDVPCP[1Nal]GPFWCPVNRPGC (linker 6-13-20 via TBMB) [Compound 188] ... 1.45

Q) Would you mind telling me what Ki value was observed for Ac-[Sar][Sar]A[dD]DVTCP[1Nal]GPFWCPVNRPGC (linker 8-15-22 via TBMB) [Compound 282] ?
A) 0.87
